# assay_target: Adrenergic receptor alpha-1 (Rattus norvegicus, UniProt P15823+P23944+P43140)
# procedure_text: Displacement of [3H]prazosin from alpha1 adrenergic receptor in rat cerebral cortex after 30 mins by Microbeta scintillation counting analysis
# Format: tissue-based
measured_quantity: Ki (nM)
Give the number; nM is assumed, so skip it.

[
  {
    "compound": "CC1(C)C(=O)N(Cc2ccc(Cl)cc2Cl)C(=O)N1CCCCCN1CCN(c2ccc(Cl)c(Cl)c2)CC1.Cl",
    "measured_quantity": "Ki",
    "u": "nM",
    "reading": 673
  },
  {
    "compound": "CC1(C)C(=O)N(Cc2ccccc2)C(=O)N1CCCCCN1CCN(c2ccc(F)cc2F)CC1.Cl",
    "measured_quantity": "Ki",
    "u": "nM",
    "reading": 71.5
  },
  {
    "compound": "CC1(C)C(=O)N(Cc2ccc(Cl)cc2Cl)C(=O)N1CCCCCN1CCN(c2ccc(Cl)cc2)CC1.Cl",
    "measured_quantity": "Ki",
    "u": "nM",
    "reading": 758.5
  }
]

query: Quick one: give measured Ki for `CC1(C)C(=O)N(Cc2ccccc2)C(=O)N1CCCCCN1CCN(c2ccccc2F)CC1.Cl`
result: 71

query: Quick one: give measured Ki for CN1C(=O)N(CCCCCN2CCN(c3ccccc3F)CC2)C(C)(c2ccccc2)C1=O.Cl (configuration not stated)
result: 11.3

query: Quick one: give measured Ki for `CC1(C)C(=O)N(Cc2ccc(F)cc2)C(=O)N1CCCCCN1CCN(c2ccc(F)cc2)CC1.Cl`
result: 36.8

query: Quick one: give measured Ki for COc1ccccc1N1CCN(CCCCCN2C(=O)N(C)C(=O)C2(C)c2ccccc2)CC1.Cl (configuration not stated)
result: 42.3

query: Quick one: give measured Ki for CN1C(=O)N(CCCCCN2CCN(c3ccccc3)CC2)C(C)(c2ccccc2)C1=O.Cl (configuration not stated)
result: 7.3

query: Quick one: give measured Ki for `CC1(C)C(=O)N(Cc2ccccc2)C(=O)N1CCCCCN1CCN(c2ccc(F)cc2)CC1.Cl`
result: 68.4
